Listed molecules paired with reported % Conversion NAT2
# system.under.test: human NAT2 (Homo sapiens, UniProt P11245)
# Sequence (P11245 whole entry): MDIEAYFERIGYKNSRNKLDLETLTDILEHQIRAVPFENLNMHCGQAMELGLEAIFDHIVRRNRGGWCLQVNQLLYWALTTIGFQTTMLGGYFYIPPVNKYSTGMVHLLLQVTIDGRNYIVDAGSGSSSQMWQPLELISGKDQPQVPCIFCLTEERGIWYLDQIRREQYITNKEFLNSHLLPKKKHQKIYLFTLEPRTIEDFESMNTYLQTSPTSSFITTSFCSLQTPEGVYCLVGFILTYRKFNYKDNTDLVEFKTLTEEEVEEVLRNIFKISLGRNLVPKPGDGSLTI
# measurement.parameters: human, 120 min, 100 μM, pH 7.4

The examples below pair each entry with its known result.
molecule=CCOC(=O)[C@H](C)NP(=O)(N[C@@H](C)C(=O)OCC)c1ccc(-c2nc(N)sc2C(=O)C(C)(C)C)o1 system_under_test="human NAT2 (Homo sapiens, UniProt P11245)" observed_value=0%
molecule="CC(C)Cc1sc(N)nc1-c1ccc(P(=O)(O)O)o1 [Compound 3.6, reference compound]" system_under_test="human NAT2 (Homo sapiens, UniProt P11245)" observed_value=5.9%

Now for another entry.
Item under review: `CC(C)OC(=O)C(C)(C)NP(=O)(NC(C)(C)C(=O)OC(C)C)c1ccc(-c2nc(N)sc2C(=O)C(C)(C)C)o1` . Reported % Conversion NAT2?
0%
